The reported measurements were obtained from patent US20250368745A1.

Biological target: T1, human IL-18BP (human, UniProt O95998 31-194)
T1 construct: UniProt printed as 095998; also called hIL-18BP
T1 sequence: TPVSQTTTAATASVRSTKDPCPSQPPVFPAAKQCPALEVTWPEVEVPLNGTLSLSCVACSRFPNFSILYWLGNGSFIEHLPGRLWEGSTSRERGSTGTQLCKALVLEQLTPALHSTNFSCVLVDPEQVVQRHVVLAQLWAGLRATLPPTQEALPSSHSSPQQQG
Test: BLI, apparent KD
// classify: if (Kd < 2 nM) Met else Not met

binder	category
SA301a HC-H52Y (antibody, name in Kabat numbering, V domains shown, IgG1 kappa) VH: QVQLQESGPGLVKPSQTLSLTCTVSGYSITSDYNSHWIRQPPGKGLEWIGYIYYSGSTNYNPSLKSRVTISRDTSKNQFSLKLSSVTAADTAVYYCARNYGSIYVNYFDYWGQGTLVTVSS VL: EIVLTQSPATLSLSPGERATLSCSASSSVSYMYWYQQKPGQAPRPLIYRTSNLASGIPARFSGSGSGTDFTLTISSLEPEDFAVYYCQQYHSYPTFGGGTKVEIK	Met
SA301a HC-Y50R (antibody, name in Kabat numbering, V domains shown, IgG1 kappa) VH: QVQLQESGPGLVKPSQTLSLTCTVSGYSITSDYNSHWIRQPPGKGLEWIGRIHYSGSTNYNPSLKSRVTISRDTSKNQFSLKLSSVTAADTAVYYCARNYGSIYVNYFDYWGQGTLVTVSS VL: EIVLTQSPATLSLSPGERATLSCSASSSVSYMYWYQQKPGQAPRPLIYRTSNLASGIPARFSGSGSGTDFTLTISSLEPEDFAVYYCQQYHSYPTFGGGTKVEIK	Met
SA301a HC-S54N (antibody, name in Kabat numbering, V domains shown, IgG1 kappa) VH: QVQLQESGPGLVKPSQTLSLTCTVSGYSITSDYNSHWIRQPPGKGLEWIGYIHYNGSTNYNPSLKSRVTISRDTSKNQFSLKLSSVTAADTAVYYCARNYGSIYVNYFDYWGQGTLVTVSS VL: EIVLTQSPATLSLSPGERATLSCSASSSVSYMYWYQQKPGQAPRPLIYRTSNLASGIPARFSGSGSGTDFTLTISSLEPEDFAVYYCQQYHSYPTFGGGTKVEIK	Met

In the record for SA301a HC-I51F (antibody, name in Kabat numbering, V domains shown, IgG1 kappa) VH: QVQLQESGPGLVKPSQTLSLTCTVSGYSITSDYNSHWIRQPPGKGLEWIGYFHYSGSTNYNPSLKSRVTISRDTSKNQFSLKLSSVTAADTAVYYCARNYGSIYVNYFDYWGQGTLVTVSS VL: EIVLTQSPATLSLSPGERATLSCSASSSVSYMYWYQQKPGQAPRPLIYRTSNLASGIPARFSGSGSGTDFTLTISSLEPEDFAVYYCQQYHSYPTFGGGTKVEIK , is Kd less than 2 nM?
Not met

In the record for SA301a HC-Y53E (antibody, name in Kabat numbering, V domains shown, IgG1 kappa) VH: QVQLQESGPGLVKPSQTLSLTCTVSGYSITSDYNSHWIRQPPGKGLEWIGYIHESGSTNYNPSLKSRVTISRDTSKNQFSLKLSSVTAADTAVYYCARNYGSIYVNYFDYWGQGTLVTVSS VL: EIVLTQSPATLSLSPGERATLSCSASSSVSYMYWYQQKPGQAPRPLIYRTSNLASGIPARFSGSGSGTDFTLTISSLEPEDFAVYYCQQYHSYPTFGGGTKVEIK , is Kd less than 2 nM?
Not met

In the record for SA301a HC-S54M (antibody, name in Kabat numbering, V domains shown, IgG1 kappa) VH: QVQLQESGPGLVKPSQTLSLTCTVSGYSITSDYNSHWIRQPPGKGLEWIGYIHYMGSTNYNPSLKSRVTISRDTSKNQFSLKLSSVTAADTAVYYCARNYGSIYVNYFDYWGQGTLVTVSS VL: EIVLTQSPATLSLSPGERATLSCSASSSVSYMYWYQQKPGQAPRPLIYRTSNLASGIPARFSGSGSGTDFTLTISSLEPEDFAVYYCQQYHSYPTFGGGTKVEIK , is Kd less than 2 nM?
Met

In the record for SA301a HC-I51G (antibody, name in Kabat numbering, V domains shown, IgG1 kappa) VH: QVQLQESGPGLVKPSQTLSLTCTVSGYSITSDYNSHWIRQPPGKGLEWIGYGHYSGSTNYNPSLKSRVTISRDTSKNQFSLKLSSVTAADTAVYYCARNYGSIYVNYFDYWGQGTLVTVSS VL: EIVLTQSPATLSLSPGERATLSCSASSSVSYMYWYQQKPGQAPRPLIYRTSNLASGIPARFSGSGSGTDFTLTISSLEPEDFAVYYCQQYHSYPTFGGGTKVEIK , is Kd less than 2 nM?
Met

In the record for SA301a HC-Y50H (antibody, name in Kabat numbering, V domains shown, IgG1 kappa) VH: QVQLQESGPGLVKPSQTLSLTCTVSGYSITSDYNSHWIRQPPGKGLEWIGHIHYSGSTNYNPSLKSRVTISRDTSKNQFSLKLSSVTAADTAVYYCARNYGSIYVNYFDYWGQGTLVTVSS VL: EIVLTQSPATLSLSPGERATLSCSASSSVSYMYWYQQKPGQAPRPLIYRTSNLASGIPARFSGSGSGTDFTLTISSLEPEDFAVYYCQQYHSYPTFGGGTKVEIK , is Kd less than 2 nM?
Met

In the record for SA301a HC-Y50F (antibody, name in Kabat numbering, V domains shown, IgG1 kappa) VH: QVQLQESGPGLVKPSQTLSLTCTVSGYSITSDYNSHWIRQPPGKGLEWIGFIHYSGSTNYNPSLKSRVTISRDTSKNQFSLKLSSVTAADTAVYYCARNYGSIYVNYFDYWGQGTLVTVSS VL: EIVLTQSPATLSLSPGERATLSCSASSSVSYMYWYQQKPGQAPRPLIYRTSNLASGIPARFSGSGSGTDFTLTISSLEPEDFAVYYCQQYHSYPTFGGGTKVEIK , is Kd less than 2 nM?
Not met
